Experiment: NCI Yeast Anticancer Drug Screen. Data for the sgs1 mgt1 strain (AID 161);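 also: 0% = growth of cultures given vehicle only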
Conditions: S. cerevisiae sgs1 mgt1 strain, at 50.0 µM, active compounds read high
Compounds without any hit were thinned out: in the full panel of roughly 79,000, 15% have a hit.
Kindly supply the reported growth inhibition values for the records listed here.
# number only, unit % dropped from output

Task: What does the data say about its growth inhibition? Entry: O=Cc1cc2c(s1)C(=O)c1sccc1C2=O
Output: 89

Task: What does the data say about its growth inhibition? Entry: Clc1cc2ccccc2c2ccccc12
Output: 75.2

Task: What does the data say about its growth inhibition? Entry: Cc1ccccc1Nc1nc(-c2ccccc2)nc(N)c1N=O
Output: 72.8

Task: What does the data say about its growth inhibition? Entry: CC(=O)N(/C=C\c1sc2ccccc2[n+]1C)c1ccccc1
Output: 84

Task: What does the data say about its growth inhibition? Entry: Cc1ccc2c(c1)C1(SCC(=O)N1c1ccc(Cl)cc1)C(=O)N2 (configuration not stated)
Output: 77.8

Task: What does the data say about its growth inhibition? Entry: O=C1C(Cl)=C(Cl)C(=O)C2=C1CC(Cl)C(Cl)C2 (configuration not stated)
Output: 99.5

Task: What does the data say about its growth inhibition? Entry: O=C(O)c1ccc(CSc2ccc(Cl)cc2)cc1
Output: 51.3

Task: What does the data say about its growth inhibition? Entry: CC(C)CC(C(=O)SCC(C)N1CCCC1)c1ccccc1 (configuration not stated)
Output: 49.6

Task: What does the data say about its growth inhibition? Entry: CN(NC(=O)/C(=C\c1ccco1)NC(=O)c1ccccc1)c1cn[nH]c(=O)c1Cl
Output: 87.8

Task: What does the data say about its growth inhibition? Entry: O=C1/C(=C(/Br)I)c2ccccc2-c2ccccc21
Output: 64.3

Task: What does the data say about its growth inhibition? Entry: COc1ccc(N=Cc2cc(Br)cc(Br)c2O)cc1.COc1ccc(N=Cc2cc(Br)cc(Br)c2O)cc1.[Co]
Output: 90.6

Task: What does the data say about its growth inhibition? Entry: O=C1OC(=O)C2C1C1C(c3ccccc3)=C(c3ccccc3)C2(O)C2C(=O)OC(=O)C12 (configuration not stated)
Output: 69.7
